- test-target: mouse Pgp (Abcb1a, MDR3) (Mus musculus, UniProt P21447)
- Sequence (P21447 whole entry): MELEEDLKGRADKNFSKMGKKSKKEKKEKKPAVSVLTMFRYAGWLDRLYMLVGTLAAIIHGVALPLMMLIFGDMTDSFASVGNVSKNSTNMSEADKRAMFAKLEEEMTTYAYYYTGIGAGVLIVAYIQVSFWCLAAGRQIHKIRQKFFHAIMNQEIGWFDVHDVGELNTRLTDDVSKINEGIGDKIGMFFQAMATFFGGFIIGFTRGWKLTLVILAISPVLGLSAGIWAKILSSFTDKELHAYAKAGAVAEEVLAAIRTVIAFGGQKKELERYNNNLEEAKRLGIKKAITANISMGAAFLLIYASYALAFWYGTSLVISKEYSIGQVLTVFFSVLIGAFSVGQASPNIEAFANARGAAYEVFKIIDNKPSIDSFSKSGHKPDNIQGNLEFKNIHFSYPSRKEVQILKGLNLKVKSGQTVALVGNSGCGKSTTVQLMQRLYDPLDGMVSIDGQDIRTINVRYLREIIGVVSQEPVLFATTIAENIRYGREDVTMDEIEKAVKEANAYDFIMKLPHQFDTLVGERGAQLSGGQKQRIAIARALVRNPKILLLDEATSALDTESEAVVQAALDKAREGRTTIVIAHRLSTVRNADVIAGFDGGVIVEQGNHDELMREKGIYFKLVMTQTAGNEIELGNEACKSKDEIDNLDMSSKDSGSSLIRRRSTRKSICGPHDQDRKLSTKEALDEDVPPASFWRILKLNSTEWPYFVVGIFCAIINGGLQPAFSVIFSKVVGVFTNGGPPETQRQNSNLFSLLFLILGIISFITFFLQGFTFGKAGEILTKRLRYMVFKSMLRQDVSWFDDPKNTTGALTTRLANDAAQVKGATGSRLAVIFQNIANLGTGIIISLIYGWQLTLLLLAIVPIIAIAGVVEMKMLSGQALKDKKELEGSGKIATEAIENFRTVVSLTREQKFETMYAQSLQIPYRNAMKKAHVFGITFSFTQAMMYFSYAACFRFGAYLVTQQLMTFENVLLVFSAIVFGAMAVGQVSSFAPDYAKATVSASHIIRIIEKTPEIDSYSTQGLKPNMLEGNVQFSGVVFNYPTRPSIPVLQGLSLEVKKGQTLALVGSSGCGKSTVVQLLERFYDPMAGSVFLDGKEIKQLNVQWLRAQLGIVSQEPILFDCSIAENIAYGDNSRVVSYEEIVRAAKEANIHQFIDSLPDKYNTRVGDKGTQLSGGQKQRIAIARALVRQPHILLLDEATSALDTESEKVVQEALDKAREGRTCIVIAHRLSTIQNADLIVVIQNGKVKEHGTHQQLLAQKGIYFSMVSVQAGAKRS
pKd: −log10 of the molar value.

molecule | test-target | pKd
C[C@H]1O[C@@H](O[C@H]2[C@@H](O)C[C@H](O[C@H]3[C@@H](O)C[C@H](O[C@H]4CC[C@@]5(C)[C@H](CC[C@@H]6[C@@H]5C[C@@H](O)[C@]5(C)[C@@H](C7=CC(=O)OC7)CC[C@]65O)C4)O[C@@H]3C)O[C@@H]2C)C[C@H](O)[C@@H]1O | mouse Pgp (Abcb1a, MDR3) (Mus musculus, UniProt P21447) | 4.49
CCC(=O)C(CC(C)N(C)C)(c1ccccc1)c1ccccc1 (centres unmarked) | mouse Pgp (Abcb1a, MDR3) (Mus musculus, UniProt P21447) | 4.14
